src = PubChem BioAssay AID504490

system: beta-arrestin 1 C-terminal peptide binding to AP2 beta2-adaptin appendage (human); experiment: inhibitors of beta-arrestin/AP2 binding, primary screen, biochemical, GPCR trafficking, flow cytometry (AID 504490); settings: FITC-arrestin peptide / GST-AP2 beads, at 10 µM, AP2 beta2 appendage carries R879A mutation;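 note: plate controls were DMSO wells for no effect and 5 µM unlabelled arrestin peptide for full effect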
Among all 340,000 compounds or so, about 1,100 (0.32%) were called active.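 Rule for the calls: active = inhibition above a set limit, near 3 SD of compounds lacking own fluorescence (cut at about 54% in these data); inactive = the rest.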 This excerpt belongs to a sample that is enriched for actives.
Possible outcomes: T for active, F for inactive

# compound, assigned label
rows = [
    ("O=C(Nc1ccccc1)N1CCN(C2c3ccccc3-c3ccccc32)CC1", "F"),
    ("N#CCCN(C(=O)COC(=O)c1ccc(S(=O)(=O)N2CCCCCC2)cc1)c1ccccc1", "F"),
    ("COC(=O)c1ccc(CSc2nc3ccccc3c(=O)n2-c2cccc(OC)c2)o1", "F"),
    ("CCOC(=O)c1sc(NC(=O)CSc2nc(O)c(Cc3ccccc3)c(=O)[nH]2)nc1C", "F"),
    ("Cc1ccc(NC(=O)CN2CCC3(O)CCCCC3C2c2ccc3c(c2)OCO3)c(C)c1 (stereo not given)", "F"),
    ("CN(C)c1ccc(Nc2c3c4c(cccc4n(C)c2=O)C(=O)c2ccccc2-3)cc1", "T"),
    ("COc1cccc(-n2c(SCC(=O)NC3CCS(=O)(=O)C3)nc3ccccc3c2=O)c1 (stereo not given)", "F"),
    ("O=C(O)c1ccccc1NC(=S)NC(NC(=O)c1ccccc1[N+](=O)[O-])C(Cl)(Cl)Cl (stereo not given)", "F"),
    ("COc1cccc(-n2c(SCC(=O)c3c[nH]c4ccccc34)nc3ccccc3c2=O)c1", "T"),
    ("CC1CCN(C(=O)COC(=O)c2cc(=O)[nH]c3ccccc23)CC1", "F"),
]

###

system: beta-arrestin 1 C-terminal peptide binding to AP2 beta2-adaptin appendage (human); assay: inhibitors of beta-arrestin/AP2 binding, primary screen, biochemical, GPCR trafficking, flow cytometry (AID 504490); conditions: FITC-arrestin peptide / GST-AP2 beads, at 10 µM, active compounds read high, AP2 beta2 appendage carries R879A mutation
About 1,100 (0.32%) of roughly 340,000 compounds were called active. Many of the other results were omitted from the sample, so actives are more common in it than they were.
# inhibition per record follows

# compound, inhibition [%]
records = [
    ("COc1cc(Cl)ccc1OCc1cc(C(=O)N(C)CCc2c(C)n[nH]c2C)no1", -14.3),
    ("COC(=O)C1=C(C)N(C)C(C)=C(C(=O)OC)C1c1cccc(Br)c1", -3.12),
    ("C=CCn1c(C(C)NC(=O)CC)nc2ccccc21 (stereo unspecified)", -3.06),
    ("CCN1C[C@@H]2[C@@H]3C(=O)N(Cc4ccccc4)C(=O)[C@@H]3[C@](Cc3ccccc3)(C(=O)OC)N2C1=NC1CCCCC1", 4.73),
    ("COc1ccc(-c2[nH]ncc2CN(C)Cc2c(C)n[nH]c2C)c(OC)c1", 6.55),
    ("OCCN1CCOCCOCCN(CCO)CCN(CCO)CC1", -4.2),
    ("O=C1N(Cc2ccc3c(c2)OCO3)c2ccccc2C1(O)c1c[nH]c2ccccc12 (stereo unspecified)", 2.95),
    ("CSCC[C@H](NC(=O)N1CCn2c1nc1ccccc12)C(=O)NC1CCCCC1", -6.82),
    ("CCC1(CC)NC(=O)N(CC(=O)OCC(=O)NC(=O)c2ccccc2)C1=O", 5.01),
    ("NS(=O)(=O)c1ccc(CCNC(=O)CNC(=O)Cc2ccccc2)cc1", 3.4),
    ("O=C(NNc1cc(Cl)cc(Cl)c1)c1c(F)cccc1Cl", -11.9),
    ("CC(=O)Nc1ccc(S(=O)(=O)N2CCN(C(=O)c3ccccc3F)CC2)cc1", -16.7),
    ("CCc1ccccc1N(CC(=O)NCC1CCCO1)C(=O)CCC(=O)Nc1nccs1 (stereo unspecified)", -16.6),
    ("CCOc1ccccc1Nc1ccc(C(=O)O)cc1[N+](=O)[O-]", 35.8),
    ("CCNc1c(NS(=O)(=O)c2ccc(C3CCCCC3)cc2)c(=O)oc2ccccc12", 27.9),
    ("CC(C)C[C@H](NC(=O)N1CCn2c1nc1ccccc12)C(=O)NC1CC1", 60.8),
    ("Cc1ccc(Nc2ccc(C(N)=O)cc2[N+](=O)[O-])cc1", 54.7),
    ("Cc1ccc(-c2cccc([C@H]3[C@@H]4C=CC[C@@H](C)[C@@H]4C(=O)N3Cc3ccccc3)c2)cc1", -6.59),
    ("CCC(=O)Nc1nc2ccccc2n1Cc1ccccc1C", 69.6),
    ("O=C(NNC(=O)C1C2CCC(C2)C1C(=O)O)c1ccc(Cl)cc1 (stereo unspecified)", 10.1),
    ("NC(=O)c1ccc(Nc2ccc3c(c2)CCC3)c([N+](=O)[O-])c1", 38.4),
]

###

Entries and their inhibition
test system: beta-arrestin 1 C-terminal peptide binding to AP2 beta2-adaptin appendage (human); test: inhibitors of beta-arrestin/AP2 binding, primary screen, biochemical, GPCR trafficking, flow cytometry (AID 504490); settings: FITC-arrestin peptide / GST-AP2 beads, at 10 µM, active compounds read high, AP2 beta2 appendage carries R879A mutation;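 note: plate controls were DMSO wells for no effect and 5 µM unlabelled arrestin peptide for full effect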
About 1,100 (0.32%) of roughly 340,000 compounds were called active. Shown is part of a subset that was picked to be rich in actives.
measure name: inhibition

# compound, result
rows = [
    ("CCC1(C(=O)c2ccccc2)C(c2cccc([N+](=O)[O-])c2)C1(C(=O)OC)C(=O)OC (configuration not stated)", "-3.23% (inactive)"),
    ("NS(=O)(=O)c1ccc(CNC(=O)c2cccc(Oc3ccccc3)c2)cc1", "10.4% (inactive)"),
    ("COC(=O)c1cc(NC(=O)c2nn(C)c(=O)c3ccccc23)cc(C(=O)OC)c1", "66.5% (active)"),
    ("Cc1ccc(N=C2NC(=O)/C(=C/C=C/c3ccco3)S2)cc1C", "42.9% (inactive)"),
    ("Cc1ccc(S/C(=N\\S(=O)(=O)c2ccc(Cl)cc2)c2ccccc2)cc1", "2.53% (inactive)"),
    ("O=C(CNC(=O)c1ccc(Br)o1)Nc1ccccc1", "7.78% (inactive)"),
    ("Cc1ccc(C(=O)CN2C(=O)NC3(CCOc4ccccc43)C2=O)s1 (configuration not stated)", "-5.1% (inactive)"),
    ("CCOc1ccc(C(C)=O)cc1COC(=O)CN1C(=O)NC2(CCCC2)C1=O", "3.04% (inactive)"),
    ("C[C@@H]1CC[C@@]2(OC1)O[C@H]1C[C@H]3[C@@H]4CC=C5C[C@@H](O)[C@H](O)C[C@]5(C)C4CC[C@]3(C)[C@H]1[C@@H]2C (some centres not stated)", "26.8% (inactive)"),
    ("CC(=O)N1C(=O)/C(=C2\\SC(=S)N(NC(=O)c3ccc(O)cc3)C2=O)c2ccccc21", "7.23% (inactive)"),
    ("Cc1ccc(NS(=O)(=O)c2cn(C)c(=O)n(C)c2=O)c(C)c1", "-3.22% (inactive)"),
    ("CC(NCCc1ccc(S(N)(=O)=O)cc1)C(=O)NCc1ccccc1 (configuration not stated)", "57.4% (active)"),
]

###

test system: beta-arrestin 1 C-terminal peptide binding to AP2 beta2-adaptin appendage (human); assay: inhibitors of beta-arrestin/AP2 binding, primary screen, biochemical, GPCR trafficking, flow cytometry (AID 504490); settings: FITC-arrestin peptide / GST-AP2 beads, at 10 µM, active compounds read high, AP2 beta2 appendage carries R879A mutation;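 note: plate controls were DMSO wells for no effect and 5 µM unlabelled arrestin peptide for full effect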
About 1,100 (0.32%) of roughly 340,000 compounds were called active. Shown is part of a subset that was picked to be rich in actives.
Each record here notes measured inhibition.
measure name: inhibition

# compound, measure name, result
data = [
    ("CC(C)Cn1c(N)c(C(=O)COC(=O)CN2C(=O)C3CC=CCC3C2=O)c(=O)n(C)c1=O (stereo unspecified)", "inhibition", "1.01% (inactive)"),
    ("CN(CCc1cn[nH]c1)C(=O)CC1C(=O)NCCN1Cc1cccc(Oc2ccccc2)c1 (stereo unspecified)", "inhibition", "9% (inactive)"),
    ("CC(Oc1ccccc1)C(=O)Nc1c2c(nn1-c1ccccc1)CS(=O)C2 (stereo unspecified)", "inhibition", "4.67% (inactive)"),
    ("Cc1cccc(NC(=O)C2CCCN(C(=O)Nc3ccc(F)cc3)C2)c1C (stereo unspecified)", "inhibition", "25% (inactive)"),
    ("COc1ccc(OCC(=O)NN2Cc3ccccc3C2=N)cc1", "inhibition", "10.9% (inactive)"),
    ("Cc1csc(NC(=O)C2=COCCO2)n1", "inhibition", "17.8% (inactive)"),
]

###

tested on: beta-arrestin 1 C-terminal peptide binding to AP2 beta2-adaptin appendage (human); experiment: inhibitors of beta-arrestin/AP2 binding, primary screen, biochemical, GPCR trafficking, flow cytometry (AID 504490); details: FITC-arrestin peptide / GST-AP2 beads, at 10 µM, AP2 beta2 appendage carries R879A mutation;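 note: plate controls were DMSO wells for no effect and 5 µM unlabelled arrestin peptide for full effect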
Hit rate of the full screen: of about 340,000 compounds, about 1,100 (0.32%) were called active.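 How the source made its calls: active means inhibition above a set limit, near 3 SD of compounds lacking own fluorescence (cut at about 54% in these data); inactive means the rest.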 The sample as a whole holds a higher share of actives than the screen did.
Labels: active, inactive

# molecule, assigned label
rows = [
    ("O=P(c1ccc2c(c1)OCCO2)(N1CCOCC1)N1CCOCC1", "inactive"),
    ("Cc1ccccc1Cn1c2ccccc2c2cnn(CC(=O)NCc3ccco3)c(=O)c21", "inactive"),
    ("COc1cccc(/C=C2/SC(=S)N(CC(=O)NC3C=CS(=O)(=O)C3)C2=O)c1 (stereo not given)", "inactive"),
    ("COc1ccc(/C=C2\\SC(=S)N(CCC(=O)Nc3ccccn3)C2=O)cc1OC", "active"),
    ("Cc1cccc(N2CCN(c3ccc(NC(=O)/C=C\\C(=O)O)cc3)CC2)c1", "inactive"),
]
